Dear all, I have gathered published Ki values for Heat shock protein HSP 90-beta (Homo sapiens); the list follows.

>>> df
                               entry_smiles   result
0   Cc1cc(C#Cc2ccccc2/C=N/N2CCOC2=O)nc(N)n1  4000 nM
1  CCN(CC)CCSc1nc(-c2cc(OC)c(C#N)cc2Cl)c2c(C#N)c[nH]c2n1   < 1 nM
2  Cc1cn(-c2cc3c(c(-c4ccc(F)cc4)c2)C(=O)NCC3)c2c1C(=O)CC(C)(C)C2    10 nM
3  COc1cc(Cl)c(-c2nc(SCC(=O)N3CCC3)nc3[nH]cc(C#N)c23)cc1O   < 1 nM

Consider the following items and state reported Ki for each.
1. CSc1nc(-c2ccc(C)cc2C)c2c(C3CC3)c[nH]c2n1
2. CSc1nc(-c2ccc(F)cc2C)c2c(C#N)c[nH]c2n1
3. COc1cc(Cl)c(-c2nc(SCC(=O)NC(C)C)nc3[nH]cc(C#N)c23)cc1OC
4. COc1cc(Cl)c(-c2nc(SCC(=O)NC(C)(C)C)nc3[nH]cc(C#N)c23)cc1OC
5. COc1cc(Cl)c(-c2nc(SCC(=O)NC3CC3)nc3[nH]cc(C#N)c23)cc1OC
6. COc1cc(Cl)c(-c2nc(SCC(=O)N(C)C)nc3[nH]cc(C#N)c23)cc1O

Reply |
> 50000 nM
358 nM
< 1 nM
< 1 nM
< 1 nM
< 1 nM
